meta.source: paper PMC11121495

assay: in vitro; format: in vitro ADME; conditions: isolated enzyme trypsin
Where no end group is shown, it is not given here.
Test readout: half-life at 2.44 mg/mL

// half-life at 2.44 mg/mL lookup, key: KRCRFRIYRWGFPRRRF [blap-6] ~6 h

---

assay: in vitro; assay type: in vitro ADME; settings: isolated enzyme chymotrypsin
Where no end group is shown, it is not given here.
Test readout: half-life at 2.44 mg/mL

// half-life at 2.44 mg/mL lookup, key: KRCRFRIYRWGFPRRRF [blap-6] ~5 h
